Provenance of the data: PubChem BioAssay (NCI)

# Tested on: OVCAR-5 ovarian
# measurementDescription: NCI tumour cell line growth inhibition, 48 h; in the data active means GI50 below about 0.43 µM; inactive means the rest
Response enum: active, inactive

Known results for compounds:
Cc1ccc(/C(=C/C=C(C#N)C#N)Sc2ccccn2)cc1    inactive
COc1ccc(-n2c(C)nc3c(c(C)nn3-c3ccccc3)c2=O)cc1    active
Cc1ccccc1C(C(=O)NC1CCCCC1)N(C(=O)Cn1ccnc1C)c1cccc(F)c1 (stereo not drawn)    inactive

(Q) Hey, what did the test say about COc1ccc(C2=C(c3cc(OC)c(OC)c(OC)c3)C(=O)OC2)cc1OC ?
(A) active

(Q) Hey, what did the test say about CNCCOC(=O)/C=C1/CCC2C(C(O)CC3C(C)(C(=O)OC)CCCC23C)C1C (stereo not drawn) ?
(A) active

(Q) Hey, what did the test say about COc1cc2c3c(n(C)c(=O)c2cc1OC)-c1cc2c(cc1/C3=C/[C@H](N)CCCCN)OCO2 ?
(A) inactive

(Q) Hey, what did the test say about COc1cc(-c2n/c(=C\c3c(O)[nH]c4ccccc34)cc3c2=Nc2ccccc2-3)cc(OC)c1OC ?
(A) inactive

(Q) Hey, what did the test say about Nc1ccc(-n2c(=O)oc3ccc(Cl)cc3c2=O)c(Cl)c1 ?
(A) inactive
